- Test system: eastern black nightshade
- run_description: Test C pre-/postemergence test
- Assay type: in vivo, Solanum ptycanthum
- condition_description: 62 g ai/ha, Preemergence; scale 0 to 100
assay_endpoint: Nightshade plant response rating
Reply: number alone, nothing else.

q: Report Nightshade plant response rating for Cn1nc(C(F)(F)F)c(C[S+]([O-])c2cc(Br)cc[n+]2[O-])c1Cl (racemic) [Compound 35] please.
a: 100

q: Try the compound CCc1cc[n+]([O-])c(S(=O)(=O)Cc2c(C(F)(F)F)nn(C)c2OCC(F)(F)F)c1 [Compound 60]
a: 80

q: Try the compound Cn1nc(C(F)(F)C(F)(F)F)c(C[S+]([O-])c2cccc[n+]2[O-])c1OCC(F)(F)F (stereo not drawn) [Compound 79]
a: 50

q: Try the compound Cc1cc([S+]([O-])Cc2c(C(F)(F)F)nn(C)c2OCC(F)(F)F)[n+]([O-])cc1Cl (stereo not drawn) [Compound 70]
a: 100

q: Try the compound CC(C)c1cc[n+]([O-])c([S+]([O-])Cc2c(C(F)(F)F)nn(C)c2OC(F)F)c1 (stereo not drawn) [Compound 109]
a: 80

q: Try the compound Cc1cc[n+]([O-])c([S+]([O-])Cc2c(C(F)(F)F)nn(C)c2OCC(F)(F)F)c1 (racemic) [Compound 30]
a: 100

q: Try the compound Cc1cc[n+]([O-])c([S+]([O-])Cc2c(C(F)(F)F)nn(C)c2Cl)c1 (racemic) [Compound 20]
a: 85

q: Try the compound Cn1nc(C(F)(F)F)c(C[S+]([O-])c2ccc(Cl)c[n+]2[O-])c1Cl (racemic) [Compound 17]
a: 100

q: Try the compound Cn1nc(C(F)(F)F)c(C[S+]([O-])c2ccc(Cl)c[n+]2[O-])c1OCC(F)(F)F (racemic) [Compound 62]
a: 100

q: Try the compound Cc1cc[n+]([O-])c(S(=O)(=O)C(Cl)c2c(C(F)(F)F)nn(C)c2Cl)c1 (racemic) [Compound 22]
a: 85

q: Try the compound Cn1nc(C(F)(F)F)c(CS(=O)(=O)c2ccc(Cl)c[n+]2[O-])c1Cl [Compound 18]
a: 60

q: Try the compound CC(Oc1c(C[S+]([O-])c2ccc(Cl)c[n+]2[O-])c(C(F)(F)F)nn1C)C(F)(F)F (stereo not drawn) [Compound 87]
a: 80

q: Try the compound Cn1nc(C(F)(F)C(F)(F)F)c(C[S+]([O-])c2ccc(Cl)c[n+]2[O-])c1OCC(F)(F)F (stereo not drawn) [Compound 92]
a: 80

q: Try the compound Cn1nc(C(F)(F)F)c(C[S+]([O-])c2ccc(F)c[n+]2[O-])c1Cl (stereo not drawn) [Compound 54]
a: 50

q: Try the compound CC(c1c(C(F)(F)F)nn(C)c1OC(F)F)S(=O)(=O)c1cc(C(C)(C)C)cc[n+]1[O-] (racemic) [Compound 26]
a: 100
